All values here come from ChEMBL document CHEMBL3124891.

Reported Ki for target or system Coagulation factor VII (Homo sapiens), by entry.
Field note: include the unit after the figure.

1. C[C@]1(c2ccccc2)C[C@@H](c2cccc(-c3ccc(C(N)=O)cc3C(=O)O)c2)Nc2ccc(C(=N)N)cc21 (racemic): 280 nM
2. CC1(c2ccccc2)CC(c2cccc(-c3ccc(C(N)=O)cc3C(=O)O)c2)Nc2ccc(C(=N)N)cc21 (single isomer, unassigned; (+)): 86 nM
3. CC(C)(C)NC(=O)c1ccc(-c2cccc([C@@H]3C[C@](C)(c4ccccc4)c4cc(C(=N)N)ccc4N3)c2)c(C(=O)O)c1 (racemic): 1290 nM

Query C[C@]1(c2ccccc2)C[C@@H](c2cccc(-c3ccccc3C(=O)O)c2)Nc2ccc(C(=N)N)cc21 (racemic) yields Ki of 3060 nM

Per the record, CC(C)CC(=O)Nc1cc(-c2ccc(C(N)=O)cc2C(=O)O)cc([C@@H]2C[C@](C)(c3ccccc3)c3cc(C(=N)N)ccc3N2)c1 (racemic) has Ki of 1010 nM

CC(=O)Nc1ccc(-c2cccc([C@@H]3C[C@](C)(c4ccccc4)c4cc(C(=N)N)ccc4N3)c2)c(C(=O)O)c1 (racemic) has a reported Ki of 705 nM

# compound C[C@]1(c2ccccc2)C[C@@H](c2cc(N)cc(-c3ccc(C(N)=O)cc3C(=O)O)c2)Nc2ccc(C(=N)N)cc21 (racemic) ; its Ki = 56 nM
